assay: Novel Modifiers of Survival Motor Neuron (SMN) Protein: Gene Identification via Genome-wide siRNA Screen; conditions: HEK293T SMN2-luciferase reporter, siRNA knockdown, 72 h; actives lie on both sides;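 further: luminescence tracks full-length SMN protein made from the SMN2 reporter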
About 1,400 (4.5%) of roughly 31,000 sequences were called active.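 How the source made its calls: active means median seed-adjusted z-score above 1 or below -1; inactive means the rest.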 This is one part of a sample in which actives are shown more often than they occur.
Classes used: 1 (yes) = active, 0 (no) = inactive

Construct sequence	Class label
GCCUUAAAAAGCACCAAAATT against ZNF16	0 (no)
GAGUCACUUCUAAUAAACATT against FOLR2	0 (no)
CAGUGUAUCUGAACCUAUUTT against EFTUD1	1 (yes)
UGAAGAUGAGGGACCCUAATT against LOXL4	0 (no)

* * *

assay: Novel Modifiers of Survival Motor Neuron (SMN) Protein: Gene Identification via Genome-wide siRNA Screen; details: HEK293T SMN2-luciferase reporter, siRNA knockdown, 72 h; actives lie on both sides;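 further: luminescence tracks full-length SMN protein made from the SMN2 reporter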
Screen size: about 31,000 sequences; about 1,400 (4.5%) were called active.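 The calls were made as follows: active = median seed-adjusted z-score above 1 or below -1; inactive = the rest.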 The full list was thinned out, with actives kept by preference.
Classes used: label 1 = active, label 0 = inactive

Construct sequence	Class label
GAGUUUUUAUGGACUCUCATT against GRIK4	label 0
GGAACGAAGAGAACUAGAATT against OFD1	label 0
GUUUUGACCCUAUAGUUUATT against P2RY5	label 0
UCUCAGAUCUCUUCCCAGATT against ROBO4	label 0
GCCUAGAAUUUGUAUCCCATT against ATXN2	label 0
GGGUUGGUGUGAUUGGAGUTT against LOC647743	label 0
GGUCCGAUGUUACGUCUAATT against TIGD4	label 0
CGGGCGAGUUUACUAUGUATT against ITCH	label 0
GGACCACUAUUUACAGCAATT against FUCA2	label 0
CCGUCAAGGUCGUCAUACATT against NTSR1	label 1
GUCAGAUACAUGAACCAGATT against JMJD1A	label 0
GUAUUCCAGCGAAUCCGAUTT against PAK7	label 0
AGAUUGUCCUCAACUUCAATT against NRP2	label 0
CGAAUGACAAGUGAUCUAATT against MDH1B	label 1
GAGUCACAGUCGUUAUUCUTT against CNOT4	label 0
GAGUUCACCCAGAUCGAAATT against CHMP6	label 1
CCAUCGAUGAUGACUGUAATT against ETFB	label 0
CAUUGCAAGUUGUUCUUGATT against GJA4	label 0
GCAGUACACGAGAAAGUCATT against 1-Sep	label 0
UAAACUCGUUAGUCAAUUATT against SLC7A9	label 0
GCAAGGACCCAACAACCAATT against TTC9	label 0
GAGUGAAGUAUAAUCCAUATT against TPH1	label 0
AGAAAGUACUGCACAGAGATT against PCDH8	label 1
GAUCUAUUCUUAAUGCCGATT against TFB1M	label 0
CCAGGUCCCUAAUCAUGGATT against NOXA1	label 0

* * *

assay: Novel Modifiers of Survival Motor Neuron (SMN) Protein: Gene Identification via Genome-wide siRNA Screen; details: HEK293T SMN2-luciferase reporter, siRNA knockdown, 72 h; actives lie on both sides;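 further: luminescence tracks full-length SMN protein made from the SMN2 reporter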
The whole screen tested about 31,000 sequences, of which about 1,400 (4.5%) were called active. Shown is part of a subset that was picked to be rich in actives.

Construct sequence	median seed-adjusted z-score
AGAUAUUUGUUAUCGCUGUTT against CNBP	-1.14 (active)
AGAUAAGGAUGAAUUGAUATT against KLRB1	-0.44 (inactive)
GGUCAGAGACCAUCCAGAATT against GFRA4	-1.59 (active)
CCAAGACUCCAACCAUUUUTT against IKZF4	-0.426 (inactive)
ACUUAAUGCCUGCCUAUUATT against CYP21A2	-0.26 (inactive)
GUAUCUGACUGACAUCCUUTT against PLCH2	0.593 (inactive)
CCUCCUCGAUGCCUACAAATT against DIO2	-0.549 (inactive)
CCUUCAAGCUGCAGACUAATT against THBS4	-0.28 (inactive)
GGCUCAUUUUCGCCCUGUATT against CHP2	0.364 (inactive)
GAGACCUAACUGUACGUGATT against TSG101	1.48 (active)
CAAGAUCUCAAGAAAUUCATT against CDK2	-0.347 (inactive)
GUCACUUCAUGGGCAAGAATT against NMB	0.746 (inactive)
GGCCUUCGUGUACAUCAAUTT against SUV39H1	-0.0775 (inactive)
GGAAGUUCAUUACCAGAAUTT against PLCZ1	0 (inactive)
CUCUAACCGUGGUUCCAGATT against SUPT16H	1.2 (active)
GAGCCACACUUUCAAGUAATT against CRIP1	-0.622 (inactive)
GUAUGUCACCUAUCACUGUTT against SLC25A38	0 (inactive)
ACAGAACUCGGGACCUUUUTT against H6PD	0.069 (inactive)
GGACACCACAGUACCUAAATT against IL22RA1	-1.14 (active)
CGUGUAUUCUUUCACUAAUTT against MFSD1	-0.0833 (inactive)
GGGAGAUCCUAGAACAAGATT against TAOK1	-0.0533 (inactive)
GCGGGAGAAGCUUACCUUUTT against DPP3	-0.261 (inactive)
CGACACUGCCGAAUGGAAATT against SRCRB4D	-0.0568 (inactive)
GGAAAAUCAUUGUGCUAAUTT against VN2R1P	-0.25 (inactive)
CGGUUGUUAUGACAAUGGATT against FN1	-0.312 (inactive)
GGGUGAAUGCUAUUGAGUUTT against MKRN1	-0.496 (inactive)
GAACUUGUCUUGCGCAAAATT against ZEB1	-0.163 (inactive)
GUAAGUCCCUUUAUUCACATT against GFRA4	-1.59 (active)
GGAUGACCAGGGUCUAUAATT against FMO4	-0.359 (inactive)
GUAGGACUCUCAUUCGGGATT against CCND1	-0.912 (inactive)
GGAUGCGUUUUCUGACAAATT against GPR149	-0.186 (inactive)
GAGAACAUGUUGUUCCGCUTT against SSPO	0.397 (inactive)
AAUCAAAAGGGAGAACUCATT against HS3ST2	0.133 (inactive)
GCUUUGACCGUGUCCGAAATT against STT3A	0 (inactive)
GAUCUACCGAAUACAAGAATT against GPR171	-0.449 (inactive)
AUACCUGAACAGUCCCUCATT against NOBOX	-0.426 (inactive)
GGCGAAGUGUCCGACAGAATT against ZNF747	0.379 (inactive)
CGAUCAAUGUUAGAAGUUATT against ACTR2	0.548 (inactive)
GGCUAUAAUAGACACGAGATT against CDH6	0 (inactive)
CGAAGAAUCUUCCGAAGAATT against EIF2AK1	-0.546 (inactive)
GCAGAGAACUGGUUCCGAATT against ZNF512B	0.212 (inactive)
GCUGCUACUUUGAAGUCCATT against FGG	-0.043 (inactive)
GCUAUUGAGUUUGCCCAAATT against ADHFE1	0.418 (inactive)
CAAGUGGGCUGAGUACCAUTT against PHPT1	1.27 (active)
CAACGAUGGUGUACUACAATT against ABCC9	0.376 (inactive)

* * *

assay: Novel Modifiers of Survival Motor Neuron (SMN) Protein: Gene Identification via Genome-wide siRNA Screen; details: HEK293T SMN2-luciferase reporter, siRNA knockdown, 72 h; actives lie on both sides;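 further: luminescence tracks full-length SMN protein made from the SMN2 reporter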
Screen size: about 31,000 sequences; about 1,400 (4.5%) were called active.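 Rule for the calls: active = median seed-adjusted z-score above 1 or below -1; inactive = the rest.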 Shown is part of a subset that was picked to be rich in actives.
Classes used: true for active, false for inactive

Construct sequence	Class label
GAGUGAUCAGAGACCGAAATT against IARS	false
UGGUGUCGCUGGAGAAGUATT against GPX7	false
CCAUAUUAAUGUCCAUGAUTT against PCDHB7	false
CCAGGACAUUCGAAAGCGATT against TRAF4	true
GAAAAACGAUGUAAGCAAUTT against ADH1A	false
GCAAGAUUAGACAUACUGATT against PSMC6	false
GCUCAAAUUGUUUUGCGUUTT against AKR1D1	false
CGAAGUUCAUAGACGAGAUTT against PPP1R2	false
GCAUCGAGAUCCACGAAGATT against PITPNM3	false
ACUUUGCCUUCAAGCUCUATT against SERPINA13	false
CAUAGACUCUUACACCACATT against SC4MOL	false
GCAUCAUCUCAGCACCAGATT against SLC5A12	false
GGCCGUCAGUAAUACAUCUTT against ZBTB33	false
GGAGUUUGCGUUUGAGGUATT against PLCD1	false
GGCUAUAUCGUCACAAUGATT against ABCA4	true
GACUAUCUUUUUAGGCAAATT against BRIP1	false
CCACGGUGAUAACAGACAUTT against ALDH8A1	false
GAUAGAUCGUUUUAAGAGATT against MST4	false
GAACUUCUACUUUAACAAATT against HS3ST1	true
GCUCCGAAGUGGUGAUCAATT against CHRM1	true
GGAAUACAUCAGAAUGGUATT against ITCH	false
GGGUACCGAGGAUCGCUUUTT against LAMA5	false
GCUGGGUAGUUUGACUGAATT against TRIM61	false
GGGAUGUAAUAACAGCAUUTT against GDE1	false
GUCCUAUCACCGUAUCUUATT against SF3B4	true
CAAUAUCUGCUGUUAGCAATT against SCARB2	false
GGAAUCUCAUUUUAUCGUATT against SLC7A2	false
